Tested on: Saccharomyces cerevisiae
experiment-summary: protein stability index of tFT-peptide fusion (C-terminal peptide) (PSI (0-1 scale)); higher = more stable (slower turnover)
measurement-parameters: genetic background: wild type; temperature: 30 C
# binarize protein stability index: threshold 0.7 inclusive, high side Y, low side N

Solved entries:
LRRFIICQLHLI [YBR027C C-terminal 12 aa] ... N
KKMEARGQSIWV [RPN9 C-terminal 12 aa] ... N
IEKSKSDRRKLL [YHR022C C-terminal 12 aa] ... N
GAVYFFSKARKA [COX26 C-terminal 12 aa] ... N
NIKSSTLPGLSI [PFS2 C-terminal 12 aa] ... N
FDREDAMKKENK [DPH2 C-terminal 12 aa] ... N
KNSGEKLVAVLN [YCR102C C-terminal 12 aa] ... N
AHRENIAFPPQF [YHR033W C-terminal 12 aa] ... Y
IELQLTEIPKHK [FIN1 C-terminal 12 aa] ... Y
KHPRPFRQEHRC [YLR162W C-terminal 12 aa] ... N

Q: Please tell me: is the sequence TLKKIFSKRSIS [YCL049C C-terminal 12 aa] at or over 0.7 in terms of protein stability index?
Result: N

Q: Identify whether the reported protein stability index of the following sequence is 0.7 or greater: PPPQESTEKEEK [MRP13 C-terminal 12 aa]
Result: N

Q: Would you say SLLGIQKSVRNL [MDM20 C-terminal 12 aa] shows protein stability index at minimum 0.7?
Result: N

Q: I'd appreciate it if you could say whether NENKKANGNNCC [YPT31 C-terminal 12 aa] has protein stability index at least equal to 0.7.
Result: N

Q: Please tell me: is the sequence KVYDELKKQGLV [PRP9 C-terminal 12 aa] at or over 0.7 in terms of protein stability index?
Result: N

Q: Threshold query (protein stability index >= 0.7) on VWLAAALPLAFI [PRM7 C-terminal 12 aa]
Result: N

Q: Record HETMVNGSKRRL [DIF1 C-terminal 12 aa] ; criterion: protein stability index no lower than 0.7. Met?
Result: N

Q: # check: protein stability index of EDYAYWGNRQLY [PER1 C-terminal 12 aa] is greater than or equal to 0.7
Result: Y

----------
Tested on: Saccharomyces cerevisiae
experiment-summary: protein stability index of tFT-peptide fusion (C-terminal peptide) (PSI (0-1 scale)); higher = more stable (slower turnover)
measurement-parameters: genetic background: cdc53-1; temperature: 37 C
Items are presented alongside their recorded protein stability index.
Output: the number by itself.

Would you please look over these solved cases?
SVVYCRMRVHFV ... 0.487
FYLFPSLPLLLL ... 0.432
FSLSLFPYPFSL ... 0.764
RIHRRLIKNKRV ... 0.7
YFYIRLGIAYMM ... 0.511

Q: Output measured protein stability index for this item: `TVHVIVVCRELA`
Result: 0.518

Q: Kindly indicate its recorded protein stability index. Item: `TDSSWEVSLMVG`
Result: 0.747

Q: For the sequence `PSPHRAPPGGHP` , give its measured protein stability index value.
Result: 0.699

Q: # return recorded protein stability index for entry `RRVRVVCVIVAA`
Result: 0.373

Q: Give protein stability index for the following sequence: `GGRWRRRGFFFS`
Result: 0.72

----------
# Lookup of reported protein stability index keyed by entry
Test system: Saccharomyces cerevisiae
experiment-summary: protein stability index of tFT-peptide fusion (C-terminal peptide) (PSI (0-1 scale)); higher = more stable (slower turnover)
measurement-parameters: genetic background: wild type; temperature: 30 C
Quick one: just the number, no unit, thanks!

Below: 3 sequences and their reported protein stability index.
PPLPCATLPSHS ... 0.706
LICLTIHNEGSK ... 0.583
RKGKKNKKPKKQ ... 0.612

Q: Answer with reported protein stability index of `LSVFAFRGVFRF`
Result: 0.638

Q: Report protein stability index for `RGKTGLTRYIGV`
Result: 0.709

Q: Retrieve protein stability index measured for `FWSRGANGGVLV` and print it.
Result: 0.678

Q: Identify protein stability index associated with the sequence `TPGGDPLAPRQS`
Result: 0.641

----------
Tested on: Saccharomyces cerevisiae
experiment-summary: protein stability index of tFT-peptide fusion (C-terminal peptide) (PSI (0-1 scale)); higher = more stable (slower turnover)
measurement-parameters: genetic background: wild type; temperature: 30 C
Quick reference for protein stability index among some sequences
Number only, no unit.

Use these answered entries as a reference point.
LPLPLPWHSCPP ... 0.721
ENKGKKITITNE ... 0.625
FFVAFGSWFGFL ... 0.677
RSPPTQGQTPTT ... 0.696
PPFPPHPPPSSA ... 0.687

Q: Write down protein stability index measured for item `SSPPPCPLPTYP`
Result: 0.624

Q: Supply recorded protein stability index for `PRPPRSPLPSSL` here.
Result: 0.7

Q: Item `LSLPTPLPSPPA` : provide protein stability index
Result: 0.48

Q: Look up protein stability index of `LRCRAATSRTVS` and report it.
Result: 0.504

Q: Give protein stability index for `LFERSFSSHPVL`
Result: 0.769

Q: Report measured protein stability index; entry is `KRGKRTEKDKET`
Result: 0.652

Q: Annotate the sequence `ARFSPTLQLTPT` with its measured protein stability index.
Result: 0.844

Q: Output measured protein stability index for this item: `GWGKWGVGIGRG`
Result: 0.694

Q: Let me know recorded protein stability index for `ACSRKPIWVTWL` , thanks.
Result: 0.35

Q: Return protein stability index (reported value) for this sequence: `VSPGLFRSPPHY`
Result: 0.664

Q: Return reported protein stability index. Input sequence: `QHHRTSIPSSPV`
Result: 0.671

Q: // fetch protein stability index given entry `LRHRAYPKLFPA`
Result: 0.708

----------
System: Saccharomyces cerevisiae
experiment-summary: protein stability index of tFT-peptide fusion (C-terminal peptide) (PSI (0-1 scale)); higher = more stable (slower turnover)
measurement-parameters: genetic background: das1 deletion; temperature: 30 C
experimental-endpoint: protein stability index
Answer as a number with no unit attached.

SLRPFFPPLPRP ... 0.69
PPRCLLPPPSRS ... 0.694
FGGYLRAGVFLT ... 0.645

Q: Kindly indicate its recorded protein stability index. Item: `RVGSSLIVVYCV`
Result: 0.264

----------
Tested on: Saccharomyces cerevisiae
experiment-summary: protein stability index of tFT-peptide fusion (C-terminal peptide) (PSI (0-1 scale)); higher = more stable (slower turnover)
measurement-parameters: genetic background: wild type; temperature: 30 C
Categories are defined by ranges of protein stability index, namely low: < 0.6; medium: ≥ 0.6 and < 0.7; high: ≥ 0.7

Q: Kindly identify the class of `VPPHLLLSLSPP` .
Result: medium

Q: Note: place this sequence into its band. Item: `SSPPHLPRPSSP`
Result: high

Q: // bin(item) where item = `TVLSSQKPNNDR`
Result: medium

Q: Consider `CGGLFDVALGVG` . To which protein stability index class does it belong?
Result: low

Q: Which protein stability index category applies to `PLPCFVLRLPVF` here?
Result: low

Q: Kindly identify the class of `GGRWRRRGFFFS` .
Result: low

Q: Bin? `YHNFLPRPPRKR`
Result: medium

Q: Class? Entry: `CSWLVEWVLSFS`
Result: low

----------
System: Saccharomyces cerevisiae
experiment-summary: protein stability index of tFT-peptide fusion (C-terminal peptide) (PSI (0-1 scale)); higher = more stable (slower turnover)
measurement-parameters: genetic background: wild type; temperature: 30 C
Measured protein stability index values are reported for all entries that follow.
Could you respond with only the numeric value?

VNVSLFWFGTYL ... 0.61
PLRKYLRHLLSL ... 0.218
FKKMTNVIKGNN ... 0.689
LSAEAGAGLRAM ... 0.684

Q: Read off the recorded protein stability index for `SSFVFGLCGGVA`
Result: 0.694

Q: Look up and report measured protein stability index for this entry: `LLVMRGMRGCGT`
Result: 0.681

Q: Give the value of protein stability index reported for the following: `YPIRPRYSPAGN`
Result: 0.721

Q: Given `ISCVSFCCLFDL` , respond with its protein stability index.
Result: 0.601

Q: For the sequence `IKNQNKKKKNKK` , give its reported protein stability index.
Result: 0.689

----------
Test system: Saccharomyces cerevisiae
experiment-summary: protein stability index of tFT-peptide fusion (C-terminal peptide) (PSI (0-1 scale)); higher = more stable (slower turnover)
measurement-parameters: genetic background: wild type; temperature: 30 C
experimental-endpoint: protein stability index

Here is how some sequences turned out for protein stability index.
AETLLSQRSRDR [DNF2 C-terminal 12 aa] ... 0.692
VDDYVAAGFQTL [SUT2 C-terminal 12 aa] ... 0.714
KIPKTYSELSCL [DUN1 C-terminal 12 aa] ... 0.669
PPSPQEELLIEL [VPS27 C-terminal 12 aa] ... 0.705
FVNNKGNFKDLK [ARG3 C-terminal 12 aa] ... 0.686

Q: Retrieve protein stability index measured for QLVKLQLVELKL [LAM5 C-terminal 12 aa] and print it.
Result: 0.602

Q: // fetch protein stability index given entry TVPEFPAPIFPN [YDL159C-B C-terminal 12 aa]
Result: 0.689

Q: Consider the sequence CSPVLFSLLNIA [LCB3 C-terminal 12 aa] . State its measured protein stability index.
Result: 0.674

Q: Name the recorded protein stability index of the sequence listed here: ASVRIFLYPSNI [RPL33A C-terminal 12 aa]
Result: 0.697

Q: Return protein stability index (reported value) for this sequence: GYCFEFTLYNRK [DFR1 C-terminal 12 aa]
Result: 0.688

Q: Look up and report measured protein stability index for this entry: LKQLDNLKSQLN [ARG4 C-terminal 12 aa]
Result: 0.676

Q: Output measured protein stability index for this item: ISIALEGHTLFL [PDE1 C-terminal 12 aa]
Result: 0.706

Source: the supplement of paper PMC10724198
